- targetDesc: protein kinase C
- protocol: inhibition of protein kinase C in vitro (protein kinase-induced incorporation of 32P from [γ-32P]ATP into histone)
- settings: concentration reducing by 50% the protein kinase-induced incorporation of 32P from [γ-32P]ATP into histone
Mark each entry Fulfilled if its IC50 sits below 20 nM, and Not fulfilled for all others.

Problem: Decide: IC50 of `Cn1cc(C2=C(c3cn(CCCN=C=S)c4ccccc34)C(=O)NC2=O)c2ccccc21` strictly below 20 nM?
Solution: Fulfilled

====

pIC50 overview
- targetDesc: protein kinase C
- protocol: inhibition of protein kinase C in vitro (protein kinase-induced incorporation of 32P from [γ-32P]ATP into histone)
- settings: concentration reducing by 50% the protein kinase-induced incorporation of 32P from [γ-32P]ATP into histone
The quantity pIC50 is defined as the negative base-10 logarithm of the molar concentration.

Sample answers from the record:
Problem: Param item = `Cn1cc(C2=C(c3cn(CCC(N)=O)c4ccccc34)C(=O)NC2=O)c2ccccc21` ; retrieve measured pIC50.
Solution: 6.30

Problem: Quick one: `Cn1cc(C2=C(c3cn(C)c4ccc(N)cc34)C(=O)NC2=O)c2ccccc21`
Solution: 6.22

Problem: Entry to check: `Cc1cccc(C2=C(c3cn(C)c4ccccc34)C(=O)NC2=O)c1`
Solution: 6.00

Problem: And for `Cn1cc(C2=C(c3cn(CCCSC(=N)N)c4ccccc34)C(=O)NC2=O)c2ccccc21` ?
Solution: 8.00

In the following, a different molecule is considered.
Problem: Fill blank: measured pIC50 of the molecule `Cn1cc(C2=C(c3cn(CCCNC(N)=N[N+](=O)[O-])c4ccccc34)C(=O)NC2=O)c2ccccc21` is ____.
Solution: 7.60
